For each record, write down the corresponding activity, negative = inhibition.
test: qHTS profiling for inhibitors of Plasmodium falciparum proliferation (AID 504749);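 also: 0% = DMSO vehicle and full inhibition = artemisinin control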; settings: P. falciparum in erythrocytes, SYBR Green DNA, 72 h; at 28.7 µM (top of the series); parasite line A
Results filed as inconclusive are left out.
The response must be a number in % with no trailing unit.

The reported value for Cc1c(I)c(=O)n(-c2ccccc2)n1C in terms of activity, negative = inhibition is 2.47

The reported value for Cc1cc(O)cc(C)c1Cl in terms of activity, negative = inhibition is -2.51

The reported value for Cc1c(NC(C)C)c(=O)n(-c2ccccc2)n1C in terms of activity, negative = inhibition is 8.37

The reported value for CCc1nnc(NS(=O)(=O)c2ccc(N)cc2)s1 in terms of activity, negative = inhibition is 10.2

The reported value for Nc1ncnc(Nc2ccccc2)n1 in terms of activity, negative = inhibition is -28.4

The reported value for Cc1cccc(Nc2ccccc2C(=O)O)c1C in terms of activity, negative = inhibition is -4.38

The reported value for CCCCCC(N)=O in terms of activity, negative = inhibition is 6.64

The reported value for Cc1c(C(=O)NCCO)[n+](=O)c2ccccc2n1[O-] in terms of activity, negative = inhibition is 8.49

The reported value for CCCCCCCCCCCCCCCCCCO in terms of activity, negative = inhibition is 2.93

The reported value for C[N+](C)(C)CC[N+]1(C)Cc2c(Cl)c(Cl)c(Cl)c(Cl)c2C1 in terms of activity, negative = inhibition is 5.09

The reported value for CC(=O)NCc1c(I)c(NC(C)=O)c(I)c(C(=O)O)c1I in terms of activity, negative = inhibition is 10.9

The reported value for CCCCCCCC(=O)OCC(COC(=O)CCCCCCC)OC(=O)CCCCCCC in terms of activity, negative = inhibition is 4.54

The reported value for CC[N+](C)(CC)CCOC(=O)C1c2ccccc2Oc2ccccc21 in terms of activity, negative = inhibition is -12.5

Origin of values: PubChem BioAssay (NCATS)
